# System: OVCAR-8 ovarian
# methodDescription: NCI tumour cell line growth inhibition, 48 h

compound: CCOC(=O)C1(C)CCC(C(=O)OC)C1=O (centres undefined)
TGI: > 100 µM
--
compound: COC(=O)c1c(C)cccc1C1CN=NC12Cc1cc(C)c(C)cc1C2=O (centres undefined)
TGI: > 100 µM
--
compound: COc1cc2c3c(n(CCCN)c(=O)c2cc1OC)-c1ccc(N)cc1C3=O
TGI: 59.1 µM
--
compound: Cc1nc2ccc(S(=O)(=O)O)cc2c(=O)n1-c1ccc(C(=O)NN2C(=O)C(Cl)C2c2cccs2)cc1 (centres undefined)
TGI: > 100 µM
